Listed here are compounds together with their documented pIC50.
# System: L02
# procedureText: Cytotoxicity against human LO2 cells assessed as reduction in cell viability after 24 hrs by MTT assay
# Format: cell-based
# details: L02, 24 h
Just so you know, pIC50 here is -log10 of the concentration in molar units; reply with that number alone.

{"columns": ["compound", "targetEntity", "experimentalValue"],
 "data": [
  ["COc1cc(/C=C2\\CN(C)C/C(=C\\c3ccc(F)cc3)C2=O)cc(OC)c1OC", "L02", 4.97],
  ["COc1cc(/C=C2\\CN(C)C/C(=C\\c3ccccc3F)C2=O)cc(OC)c1", "L02", 4.92],
  ["COc1cccc2c1C(=O)c1c(O)c3c(c(O)c1C2=O)C[C@@](O)(C(=O)CO)C[C@@H]3O[C@H]1C[C@H](N)[C@H](O)[C@H](C)O1 [DOXORUBICIN]", "L02", 5.16]
]}

Ask: Tell us which pIC50 value is on record for COc1cc(/C=C2\CN(C)C/C(=C\c3ccc(Cl)c(Cl)c3)C2=O)cc(OC)c1OC
Reply: 4.74

Ask: Tell us which pIC50 value is on record for COc1cc(/C=C2\CN(C)C/C(=C\c3ccc(Cl)cc3Cl)C2=O)cc(OC)c1OC
Reply: 4.87

* * *

# System: L02
# procedureText: Cytotoxicity against human LO2 cells assessed as reduction in cell viability after 24 hrs by MTT assay
# Assay type: cell-based
# details: L02, 24 h
measuredMetric: IC50

For orientation, consider the following solved cases.
{"columns": ["structureString", "IC50"],
 "data": [
  ["CN1C/C(=C\\c2cccc([N+](=O)[O-])c2)C(=O)/C(=C/c2ccc(Cl)cc2Cl)C1", "14 µM"],
  ["CN1C/C(=C\\c2ccc(C(C)(C)C)cc2)C(=O)/C(=C/c2ccccc2F)C1", "25.8 µM"],
  ["COc1cc(/C=C2\\CN(C)C/C(=C\\c3ccc(Cl)cc3)C2=O)cc(OC)c1", "18.9 µM"],
  ["COc1cc(/C=C2\\CN(C)C/C(=C\\c3ccc(F)cc3)C2=O)cc(OC)c1", "21.9 µM"],
  ["CN1C/C(=C\\c2cccc(Br)c2)C(=O)/C(=C/c2cccc([N+](=O)[O-])c2)C1", "8.07 µM"],
  ["CN1C/C(=C\\c2ccc(C#N)cc2)C(=O)/C(=C/c2ccc(C(F)(F)F)cc2)C1", "17.2 µM"],
  ["CN1C/C(=C\\c2ccc(C(F)(F)F)cc2)C(=O)/C(=C/c2ccccc2F)C1", "18.6 µM"],
  ["CN1C/C(=C\\c2ccc(Cl)cc2)C(=O)/C(=C/c2cccc([N+](=O)[O-])c2)C1", "> 20 µM"]
]}

Please look at the following molecule next.
Ask: Tell us which IC50 value is on record for COc1cc(/C=C2\CN(C)C/C(=C\c3cc(OC)c(OC)c(OC)c3)C2=O)cc(OC)c1
Reply: 14.6 µM

* * *

# System: L02
# procedureText: Cytotoxicity against human LO2 cells assessed as reduction in cell viability after 24 hrs by MTT assay
# Format: cell-based
# details: L02, 24 h
measuredMetric: pIC50
Just so you know, pIC50 here is -log10 of the concentration in molar units; reply with that number alone.

For orientation, consider the following solved cases.
{"columns": ["structureString", "targetEntity", "experimentalValue"],
 "data": [
  ["COc1cc(/C=C2\\CN(C)C/C(=C\\c3cccc([N+](=O)[O-])c3)C2=O)cc(OC)c1", "L02", 4.97],
  ["CN1C/C(=C\\c2ccc(F)cc2)C(=O)/C(=C/c2ccc(C#N)cc2)C1", "L02", 4.68],
  ["CN1C/C(=C\\c2ccc(C#N)cc2)C(=O)/C(=C/c2ccccc2F)C1", "L02", 4.96],
  ["COc1ccc(/C=C2\\CN(C)C/C(=C\\c3ccccc3F)C2=O)cc1", "L02", 4.66],
  ["CN1C/C(=C\\c2cccc([N+](=O)[O-])c2)C(=O)/C(=C/c2ccc(Cl)c(Cl)c2)C1", "L02", 4.83]
]}

Please look at the following compound next.
Ask: Tell us which pIC50 value is on record for COc1cc(/C=C2\CN(C)C/C(=C\c3ccc(Br)cc3)C2=O)cc(OC)c1OC
Reply: 4.81

* * *

# System: HeLa
# procedureText: Cytotoxicity against human HeLa cells assessed as reduction in cell viability after 24 hrs by MTT assay
# Format: functional, cell-based
Listed here are molecules together with their documented IC50.

{"columns": ["structureString", "IC50"],
 "data": [
  ["COc1cc(/C=C2\\CN(C)C/C(=C\\c3ccc(Cl)cc3Cl)C2=O)cc(OC)c1OC", "> 20 µM"],
  ["CN1C/C(=C\\c2ccc(Br)cc2)C(=O)/C(=C/c2cccc([N+](=O)[O-])c2)C1", "11.9 µM"],
  ["COc1cc(/C=C2\\CN(C)C/C(=C\\c3ccc(Cl)cc3)C2=O)cc(OC)c1OC", "> 20 µM"],
  ["COc1cc(/C=C2\\CN(C)C/C(=C\\c3ccc(F)cc3)C2=O)cc(OC)c1OC", "7.25 µM"],
  ["COc1cc(/C=C2\\CN(C)C/C(=C\\c3ccc(Cl)cc3Cl)C2=O)cc(OC)c1", "7.76 µM"],
  ["CN1C/C(=C\\c2ccc(F)cc2)C(=O)/C(=C/c2ccc(C#N)cc2)C1", "10.2 µM"],
  ["CN1C/C(=C\\c2cccc([N+](=O)[O-])c2)C(=O)/C(=C/c2ccccc2F)C1", "2.34 µM"],
  ["CN1C/C(=C\\c2ccc(C(F)(F)F)cc2)C(=O)/C(=C/c2cccc([N+](=O)[O-])c2)C1", "3.56 µM"]
]}

Ask: Tell us which IC50 value is on record for CN1C/C(=C\c2ccc(C#N)cc2)C(=O)/C(=C/c2ccc(C(F)(F)F)cc2)C1
Reply: 3.21 µM

Ask: Tell us which IC50 value is on record for COc1cc(/C=C2\CN(C)C/C(=C\c3cccc([N+](=O)[O-])c3)C2=O)cc(OC)c1
Reply: 2.56 µM

Ask: Tell us which IC50 value is on record for COc1cc(/C=C2\CN(C)C/C(=C\c3ccccc3F)C2=O)cc(OC)c1OC
Reply: 3.22 µM

Ask: Tell us which IC50 value is on record for COc1cc(/C=C2\CN(C)C/C(=C\c3ccc(Cl)cc3)C2=O)cc(OC)c1
Reply: 11.2 µM

Ask: Tell us which IC50 value is on record for CN1C/C(=C\c2ccc(F)cc2)C(=O)/C(=C/c2cccc([N+](=O)[O-])c2)C1
Reply: 6.25 µM

Ask: Tell us which IC50 value is on record for CN1C/C(=C\c2ccc(Cl)cc2)C(=O)/C(=C/c2cccc([N+](=O)[O-])c2)C1
Reply: > 20 µM

Ask: Tell us which IC50 value is on record for COc1cc(/C=C2\CN(C)C/C(=C\c3ccc(Cl)c(Cl)c3)C2=O)cc(OC)c1
Reply: 6.9 µM

Ask: Tell us which IC50 value is on record for CN1C/C(=C\c2ccc(C(C)(C)C)cc2)C(=O)/C(=C/c2ccccc2F)C1
Reply: 15.5 µM

Ask: Tell us which IC50 value is on record for COc1cc(/C=C2\CN(C)C/C(=C\c3ccc(Br)cc3)C2=O)cc(OC)c1OC
Reply: 11.9 µM

Ask: Tell us which IC50 value is on record for COc1cc(/C=C2\CN(C)C/C(=C\c3ccccc3F)C2=O)cc(OC)c1
Reply: 5.45 µM

* * *

# Tested on: HepG2
# procedureText: Cytotoxicity against human HepG2 cells assessed as reduction in cell viability after 24 hrs by MTT assay
# Type: functional, cell-based
# details: HepG2, 24 h
Listed here are compounds together with their documented IC50.
Write the value in µM as a bare number.

For orientation, consider the following solved cases.
{"columns": ["structureString", "measuredMetric", "experimentalValue"],
 "data": [
  ["COc1cc(/C=C2\\CN(C)C/C(=C\\c3ccc(Cl)c(Cl)c3)C2=O)cc(OC)c1OC", "IC50", 6.96],
  ["COc1ccc(/C=C2\\CN(C)C/C(=C\\c3ccccc3F)C2=O)cc1OC", "IC50", 8.76],
  ["COc1cc(/C=C2\\CN(C)C/C(=C\\c3cccc([N+](=O)[O-])c3)C2=O)cc(OC)c1", "IC50", 1.84],
  ["CN1C/C(=C\\c2ccc(F)cc2)C(=O)/C(=C/c2cccc([N+](=O)[O-])c2)C1", "IC50", 9.34],
  ["COc1cc(/C=C2\\CN(C)C/C(=C\\c3ccc(C#N)cc3)C2=O)cc(OC)c1", "IC50", 0.88]
]}

Ask: Under HepG2, report IC50 for COc1cc(/C=C2\CN(C)C/C(=C\c3cccc([N+](=O)[O-])c3)C2=O)cc(OC)c1OC
Reply: 1.89

Ask: Under HepG2, report IC50 for COc1cc(/C=C2\CN(C)C/C(=C\c3ccc(Br)cc3)C2=O)cc(OC)c1
Reply: 4.84

Ask: Under HepG2, report IC50 for COc1cc(/C=C2\CN(C)C/C(=C\c3ccc(Cl)c(Cl)c3)C2=O)cc(OC)c1
Reply: 3.84

Ask: Under HepG2, report IC50 for CN1C/C(=C\c2ccc(Br)cc2)C(=O)/C(=C/c2cccc([N+](=O)[O-])c2)C1
Reply: 8.8

Ask: Under HepG2, report IC50 for COc1cc(/C=C2\CN(C)C/C(=C\c3ccc(Cl)cc3)C2=O)cc(OC)c1OC
Reply: 8.25

Ask: Under HepG2, report IC50 for CN1C/C(=C\c2ccc(C(F)(F)F)cc2)C(=O)/C(=C/c2ccccc2F)C1
Reply: 4.14
